Listed molecules paired with reported IC50
# target.of.assay: B-Raf^V600E (Homo sapiens, UniProt P15056, V600E)
# Sequence (P15056 whole entry V600E): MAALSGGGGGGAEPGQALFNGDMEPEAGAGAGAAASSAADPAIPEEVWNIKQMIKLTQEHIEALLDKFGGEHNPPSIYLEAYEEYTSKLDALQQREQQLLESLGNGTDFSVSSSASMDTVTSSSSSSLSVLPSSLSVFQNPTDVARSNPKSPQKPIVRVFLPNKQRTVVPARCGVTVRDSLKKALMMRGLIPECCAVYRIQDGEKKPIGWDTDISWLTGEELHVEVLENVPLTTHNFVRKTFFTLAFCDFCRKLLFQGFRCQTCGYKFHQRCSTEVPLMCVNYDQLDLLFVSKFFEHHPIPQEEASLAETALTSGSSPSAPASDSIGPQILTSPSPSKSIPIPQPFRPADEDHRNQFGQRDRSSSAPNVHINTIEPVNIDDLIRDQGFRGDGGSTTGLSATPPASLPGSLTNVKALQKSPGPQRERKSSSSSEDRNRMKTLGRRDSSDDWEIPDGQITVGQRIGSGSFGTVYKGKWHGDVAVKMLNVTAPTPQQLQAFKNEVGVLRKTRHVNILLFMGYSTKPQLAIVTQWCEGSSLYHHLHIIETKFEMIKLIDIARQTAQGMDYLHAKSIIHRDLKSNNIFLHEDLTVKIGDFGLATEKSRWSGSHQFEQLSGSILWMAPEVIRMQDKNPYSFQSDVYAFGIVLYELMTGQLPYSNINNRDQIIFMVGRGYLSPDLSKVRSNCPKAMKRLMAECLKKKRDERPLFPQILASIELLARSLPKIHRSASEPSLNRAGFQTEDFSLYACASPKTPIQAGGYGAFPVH
# assay.method.text: B-Raf^V600E inhibitory activity of designed new compounds (preliminary pharmacological evaluation)
# Type: biochemical
# applied.conditions: preliminary biological tests

The cases that follow already have their IC50 on record.
>>> result("CNC(=O)c1nc2ccc(C(=O)c3cccc(NC(=O)c4ccc(Cl)cc4)c3)cc2[nH]1")
"> 5000 nM"
>>> result("CC(C)NC(=O)c1nc2ccc(C(=O)c3cccc(NC(=O)Nc4cccc(C(F)(F)F)c4)c3)cc2[nH]1")
"> 5000 nM"

// query IC50 value for entry CNC(=O)c1nc2ccc(C(=O)c3cccc(NC(=O)c4ccc(C)cc4)c3)cc2[nH]1 [Compound D1]
280 nM

----------
Reported IC50, KDR (Homo sapiens, UniProt P35968).
Report as a plain number; the unit nM is understood.

Study these solved cases before continuing.
>>> numeric_value("CNC(=O)c1nc2ccc(C(=O)c3cccc(NC(=O)c4cccc(Cl)c4)c3)cc2[nH]1 [Compound D2]")
210
>>> numeric_value("CNC(=O)c1nc2ccc(C(=O)c3cccc(NC(=O)c4ccc(Cl)cc4)c3)cc2[nH]1")
950
>>> numeric_value("CNC(=O)c1nc2ccc(C(=O)c3cccc(NC(=O)c4cccc(F)c4)c3)cc2[nH]1")
890

Please examine the following record next.
Which IC50 is reported with KDR (Homo sapiens, UniProt P35968) for this entry: CNC(=O)c1nc2ccc(C(=O)c3cccc(NC(=O)c4ccc(C)cc4)c3)cc2[nH]1 [Compound D1] ?
990

----------
This section presents compounds with their documented IC50 values.
# target.of.assay: VEGFR2 (Homo sapiens, UniProt P35968)
# Sequence (P35968 806-1171): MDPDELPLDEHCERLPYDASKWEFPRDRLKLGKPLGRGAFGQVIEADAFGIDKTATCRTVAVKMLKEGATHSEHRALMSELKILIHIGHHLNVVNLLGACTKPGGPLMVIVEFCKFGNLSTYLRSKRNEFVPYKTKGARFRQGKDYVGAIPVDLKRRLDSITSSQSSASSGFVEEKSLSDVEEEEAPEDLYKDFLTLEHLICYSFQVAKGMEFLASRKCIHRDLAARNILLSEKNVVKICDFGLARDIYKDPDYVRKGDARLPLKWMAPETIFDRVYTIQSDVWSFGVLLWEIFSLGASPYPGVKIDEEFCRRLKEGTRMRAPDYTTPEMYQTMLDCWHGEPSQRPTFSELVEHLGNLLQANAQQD
# assay.method.text: VEGFR2 (KDR) kinase inhibition (literature data set)
# Type: biochemical
// units = nM; emit number, no label

Here are 3 compounds together with their reported answers.
>>> numeric_value("CC(C)(C#N)c1cccc(C(=O)Nc2cccc(Oc3ccc4nc(NC(=O)C5CC5)cn4c3)c2)c1")
1.82
>>> numeric_value("COc1cccc(C(=O)Nc2cccc(Oc3ccc4nc(NC(=O)C5CC5)cn4n3)c2)c1")
0.309
>>> numeric_value("CC(C)(C#N)c1cccc(C(=O)Nc2cccc(Oc3ccc4nc(NC(=O)C5CC5)[nH]c4c3)c2)c1")
8.13

As a next step, examine the compound that follows.
For the compound shown here, CC(C)(O)c1cccc(C(=O)Nc2cccc(Oc3ccc4nc(NC(=O)C5CC5)cn4n3)c2)c1 , give the reported IC50.
0.813

----------
# target.of.assay: VEGFR2 (Homo sapiens)
# assay.method.text: VEGFR2 (KDR) kinase inhibition (literature data set)
# Format: biochemical
Examples of compounds with documented pIC50 follow.
Scale: negative log10 of molar concentration, which is what pIC50 denotes.

>>> numeric_value("Cn1c(NC(=O)C2CC2)nc2ccc(Oc3cccc(NC(=O)c4cccc(C(C)(C)C#N)c4)c3)nc21")
8.62
>>> numeric_value("CC(=O)Nc1nc2cnc(Oc3cc(NC(=O)c4cccc(CCC#N)c4)ccc3C)nc2s1")
6.39
>>> numeric_value("O=C(Nc1cccc(Oc2ccc3nc(NC(=O)C4CC4)cn3n2)c1)c1ccccc1C(F)(F)F")
8.85
>>> numeric_value("O=C(Nc1cccc(Oc2ccc3nc(NC(=O)C4CCCC4)cn3n2)c1)c1cccc(C(F)(F)F)c1")
8.03
>>> numeric_value("CC(C)(C#N)c1cccc(C(=O)Nc2cccc(Oc3ccc4nc(NC(=O)C5CC5)sc4c3)c2)c1")
7.85

Fill in the blank: the reported pIC50 of N#CC1(c2cccc(C(=O)Nc3cccc(Oc4ccc5nc(NC(=O)C6CC6)sc5n4)c3)c2Cl)CC1 is ____.
8.40

Reported pIC50, compound CC(C)(C#N)c1cccc(C(=O)Nc2cccc(Oc3ccc4nc(NC(=O)C5CC5)cn4n3)c2)c1 : ____
8.82

Given the compound O=C(Nc1cccc(Oc2ccc3nc(NC(=O)C4CCC4)cn3n2)c1)c1cccc(C(F)(F)F)c1 , what is its reported pIC50?
8.32

Consider the compound CC(=O)Nc1nc2ccc(Oc3ccc(F)c(NC(=O)c4cccc(C5(C#N)CC5)c4Cl)c3)nc2s1 and give its measured pIC50.
8.47

Consider the compound CC(C)(C#N)c1cccc(C(=O)Nc2cccc(Oc3ccc4nc(NC(=O)C5CC5)[nH]c4n3)c2)c1 and give its measured pIC50.
8.51

# pIC50 lookup, item N#CC1(c2cccc(C(=O)Nc3cc(Oc4ccc5nc(NC(=O)C6CC6)sc5n4)ccc3Cl)c2Cl)CC1
8.12

Consider the compound CC(=O)Nc1cn2nc(Oc3cccc(NC(=O)c4cccc(C(F)(F)F)c4)c3)ccc2n1 and give its measured pIC50.
8.96
